System: MS2 coat protein
Assay: apparent KD of MS2 coat protein; higher = weaker reporter binding
Settings: Eterna round: R107; input ligand: theophylline 20 uM
Please enter Y where apparent KD of MS2 coat protein is greater than or equal to 80 nM, and N where it is lower.

# Sequence Code, Assay System, Label Class
data = [
    ("GAUAUGUAUCGAAGGAGCGGCCCUUGAUCCUCAUGAGACAUGAGGAUCACCCAUGUCUCGGGCCAGGUAGGUCGCGAUAUAUAUC [Astros-omei-mod3]", "MS2 coat protein", "N"),
    ("UCGCAUUGCUCAGAUACCAGACAUGAGGAUCACCCAUGUACCAAGGUACCCGAAAGGAAUGUCCCUUGGCAGCUGAGCAAUGCGU [MAT - Exclusion Theophlline B - Mod of Eli - D19]", "MS2 coat protein", "N"),
    ("UGUAGUACCAGACAUGAGGAUCACCCAUGUCGAGGACCGGUACGGCCGCCACUCGGCAGUUUGCGUCCUCAGGUACUCCGGGUAA [Dianreti]", "MS2 coat protein", "N"),
    ("CCUAUGCAGUCGGCCGCCACUGAACAUGAGGAUCACCCAUGUUAUUAUAAAUAUGGUCCUAAAAUCAGGACCGGGACUGUAUAGG [Ex Tryptophan B 8]", "MS2 coat protein", "N"),
    ("AUUCCAUAGGUGCAGUUGUUAAAUGGCGAUACCAGCGUGGAAACACGCCCUUGGCAGCGCCAAAACAUGAGGAUCACCCAUGUUA [Kladno]", "MS2 coat protein", "Y"),
    ("UACAUGAGGAUCACCCAUGUGUAGAGGGAUACCAGUGACAGUAAGCACCCUUGGCAGCCCGUGAACAAAGGGUGGGCAAAAUAGU [#16 Exclusion-TheophyllineA]", "MS2 coat protein", "N"),
    ("AGUAGCUGCCGAAGGAGCGCCGUGUUCCUACAUGAGGAUCACCCAUGUAGCGUUGGGUUACGGCAGGUAGGUCGCGGCGGAUAGG [Same State - Arginine B / B]", "MS2 coat protein", "Y"),
    ("AUACAUGAGGAUCACCCAUGUGAUGGCCGGCGAGGACCGGUACGGCCGCCACUCGUGAUCCGUCCUGAGAGCAAAGCCCUCAGCA [Onedti]", "MS2 coat protein", "Y"),
    ("UGUAACAUGAGGAUCACCCAUGUGAGUGAUACCAGAUAAGUAGUAGUCCCUUGGCAGCAUAUUGGGCGAGUGUAUAGUCUAUGCG [Same State - Theophylline A (Freestyle 9)]", "MS2 coat protein", "Y"),
    ("GAAAAUCCCGUACAUGAGGAUCACCCAUGUCGAGGACCGGUACGGCCGCCACUCGCACGCAUUGCAUUGGAGGGUCAGGUACGAG [Erenerrati]", "MS2 coat protein", "N"),
    ("UCGCCCGGGUCGGCCGCCACUGAGGUGAUGUGACAUGAGGAUCACCCAUGUUGUCAUGUGGCACAUAGGACCGGGACCCGGGCGA [Exclusion - Tryptophan B Attempt #3 (HarryS)]", "MS2 coat protein", "N"),
]
